Tested on: Molm-13 cells
Assay: Apoptosis measurement (AnnexinV/PI staining) on AML cells
Assay type: cell-based
Settings: Molm-13, 12.5-50 µM
RESULT_TYPE: Cytotoxic effect / induction of apoptosis (in words)

O=c1c(O)c(-c2ccc(O)c(O)c2)oc2cc(O)cc(O)c12 induced apoptosis
O=c1c(O)c(-c2ccc(O)cc2)oc2cc(O)cc(O)c12 induced apoptosis
COc1cc2oc(-c3ccc(O)cc3)cc(=O)c2c(O)c1OC induced apoptosis

###

Test system: KMS-12-PE cells
Assay: Apoptosis measurement (AnnexinV/PI staining) on myeloma cells
Type: cell-based
Settings: Homo sapiens, 25 µM, 48 h, read-out: % Alive (cells alive of control)
RESULT_TYPE: viability at 25 µM
# answer = value followed by unit

Query :: State, in one line, measured viability at 25 µM of `O=c1c(O)c(-c2ccc(O)cc2)oc2cc(O)cc(O)c12`
Result :: 91.2%

Query :: State, in one line, measured viability at 25 µM of O=C(/C=C/c1ccc(O)c(O)c1)O[C@H](Cc1ccc(O)c(O)c1)C(=O)O [Compound 12, (R)-(+)-rosmarinic acid]
Result :: 102%

Query :: State, in one line, measured viability at 25 µM of `COc1cc2oc(-c3ccc(O)cc3)cc(=O)c2c(O)c1OC`
Result :: 76.6%

Query :: State, in one line, measured viability at 25 µM of `O=c1cc(-c2ccc(O)cc2)oc2cc(O)cc(O)c12`
Result :: 69.4%

Query :: State, in one line, measured viability at 25 µM of `O=C(O)/C=C/c1ccc(O)c(O)c1`
Result :: 102%

Query :: State, in one line, measured viability at 25 µM of `COc1ccc(-c2cc(=O)c3c(O)c(OC)c(OC)cc3o2)cc1OC`
Result :: 93.4%

Query :: State, in one line, measured viability at 25 µM of `O=c1c(O)c(-c2ccc(O)c(O)c2)oc2cc(O)cc(O)c12`
Result :: 79%

Query :: State, in one line, measured viability at 25 µM of `COc1ccc(-c2cc(=O)c3c(O)cc(O)cc3o2)cc1O`
Result :: 44.2%

Query :: State, in one line, measured viability at 25 µM of O[C@@H]1O[C@H](c2ccc3c(c2)OCO3)[C@H]2CO[C@H](c3ccc4c(c3)OCO4)[C@H]21 [Compound 10, (+)-9α-hydroxysesamin]
Result :: 96.7%

Query :: State, in one line, measured viability at 25 µM of `O=c1cc(-c2ccc(O)c(O)c2)oc2cc(O)cc(O)c12`
Result :: 70.5%

Query :: State, in one line, measured viability at 25 µM of `COc1c(OC)c(O)c2c(=O)cc(-c3ccc(O)cc3)oc2c1OC`
Result :: 62.6%

Query :: State, in one line, measured viability at 25 µM of COc1cc(/C=C/C(=O)O[C@H](Cc2ccc(O)c(O)c2)C(=O)O)ccc1O [Compound 13, (R)-(+)-3′-O-methylrosmarinic acid]
Result :: 101%

Query :: State, in one line, measured viability at 25 µM of COc1cc([C@H]2OC[C@H]3[C@@H]2CO[C@@H]3c2ccc3c(c2)OCO3)ccc1O [Compound 9, (+)-piperitol]
Result :: 100%

###

Test system: KMS-12-PE cells
Assay: Apoptosis measurement (AnnexinV/PI staining) on myeloma cells
Type: cell-based
Conditions: 12.5-50 µM
RESULT_TYPE: Cytotoxic effect / induction of apoptosis (in words)

O=c1c(O)c(-c2ccc(O)cc2)oc2cc(O)cc(O)c12 induced apoptosis
O=c1c(O)c(-c2ccc(O)c(O)c2)oc2cc(O)cc(O)c12 induced apoptosis
COc1cc2oc(-c3ccc(O)cc3)cc(=O)c2c(O)c1OC induced apoptosis
